Test system: HT29 colon
Test: NCI tumour cell line growth inhibition, 48 h
Recorded measurements of TGI, one per entry

| compound | TGI |
| --- | --- |
| CN(CCCCCl)P(=O)(OCc1ccc([N+](=O)[O-])o1)OCC1OC(n2ccc(N)nc2=O)C(O)C1O (stereo unspecified) | 41.4 µM |
| CCc1nc(N)c2nc(-c3cccs3)oc2n1 | > 100 µM |
| COc1ccc(-c2ccc(OC)c(OC)c2OC)cc1 | > 100 µM |
| COc1ccc(-n2c(=S)sc3c(Cl)nc(C)nc32)c(OC)c1 | 6.28 µM |
| COC(=O)c1sc(=O)sc1SCc1cccc(CSc2sc(=O)sc2C(=O)OC)c1 | > 100 µM |
| Cc1c(C)c2c(c(N)c1C#N)C(=O)N(N)C2=O | > 100 µM |
| CC1=NN(C(=O)CC(=O)Nc2cccc(C)c2)C(=O)C1N=Nc1ccc(S(=O)(=O)CCOS(=O)(=O)O)cc1 (stereo unspecified) | 11.5 µM |
| N#CCCC(C=O)(CCC#N)CCC#N | > 100 µM |
| O=C1NC(=NCCc2ccc(Cl)cc2)S/C1=C\c1ccc2ncccc2c1 | > 25 µM |
| O=C(O)C(Cc1ccccc1)NCc1c(O)ccc2c(-c3ccccc3)cc(=O)oc12 (stereo unspecified) | > 100 µM |
| CCN1CC2(C)CCC(OC)C34C5CC6CCC(O)(C5C(=O)O6)C(C(O)C23)C14 (stereo unspecified) | > 100 µM |
| C=C(Br)CN=CN(C)C | > 100 µM |
| CC(C)(C)C[C@H]1N[C@@H](C(=O)NC2CCC(O)CC2)[C@H](c2cccc(Cl)c2F)[C@@]12C(=O)Nc1cc(Cl)ccc12 (stereo partly specified) | 19.9 µM |
| Oc1ccc(Cl)cc1C=Nc1cnc2ccccc2c1 | > 100 µM |
| COc1c2ccoc2nc2c(OC)c(OCC(O)C(C)(C)O)ccc12 (stereo unspecified) | > 100 µM |
| Cc1cn(CCCCCCOC(=O)NC(CCCNC(N)=O)C(=O)O)c(=O)[nH]c1=O (stereo unspecified) | > 100 µM |
| CCCCCC[C@H]([C@H](C)O)n1cnc2c(N)ncnc21 | > 100 µM |
| O=C1NC(O)c2cc3ccccc3cc2O1 (stereo unspecified) | > 100 µM |
| C/C(=N\Nc1nc2ccccc2s1)c1ccncn1 | 14 µM |
| Cc1ccc(/C(=N/Nc2ccc([N+](=O)[O-])cc2)Sc2cc(Cl)c(C)cc2S(N)(=O)=O)cc1 | 3.12 µM |
| O=P1(N(CCCl)CCCl)Oc2ccc(Cl)cc2C(C(Cl)(Cl)Cl)c2cc(Cl)ccc2O1 (stereo unspecified) | 18.9 µM |
| COC(=O)C1CC(c2ccc(OC)c(OC)c2)OC1=O (mixture of isomers) | > 100 µM |
| CCOC(=O)Nc1ccc2nc(-c3cscn3)[nH]c2c1 | 97.5 µM |
| COc1ccc(-c2ccc(CC(=O)O)cc2)cc1OC | > 100 µM |
| O=C(Nc1ccc(Cl)cc1C(F)(F)F)C(=O)Nn1c(=S)[nH]c2ccccc2c1=O | > 100 µM |
| O=C1NC(O)n2c(=O)[nH]c(=O)n21 (stereo unspecified) | > 100 µM |
| N[C@@H](CCC(=O)NC(Cc1ccccc1)C(=O)NCP(=O)(O)O)C(=O)O (stereo partly specified) | > 100 µM |
| O=C(CC1=Nc2nnc(CCCCCCCc3nnc4n3C(=O)C(CC(=O)c3ccc5ccccc5c3)=N4)n2C1=O)c1ccc2ccccc2c1 | > 100 µM |
| Cn1c(COC(=O)NCCn2ccnc2)nc2c(N3CCOCC3)nc(-c3ccccc3)nc21 | 1.47 µM |
| O=C(CNc1ccccc1C(=O)O)Nn1cnc2ccc(S(=O)(=O)Nc3ccccc3C(=O)O)cc2c1=O | > 100 µM |
| CC1OC(OC2C(O[C@H]3CC[C@@]4(C)C(=CC[C@H]5[C@@H]6C[C@@H]7O[C@]8(CC[C@@H](C)CO8)[C@@H](C)[C@@H]7[C@@]6(C)CC[C@@H]54)C3)OC(CO)C(O)C2OC2OC(CO)C(O)C(O)C2O)C(O)C(O)C1O (stereo partly specified) | > 100 µM |
| CC1(C)CC(C)(C)c2cc(NC(=S)Nc3ccc([N+](=O)[O-])cc3)ccc2S1 | > 100 µM |
| COc1cc2c(cc1O)C1Cc3ccc(OC)c(O)c3C[N+]1(C)CC2 (stereo unspecified) | > 100 µM |
| O=C1[C@@H]2[C@@H](CN3CN(c4ccccc4)N=C(c4ccccc4)[C@@]23c2ccccc2)C(=O)N1c1ccccc1 | 6.22 µM |
| ClC1=NN=C(c2c[nH]c3ccccc23)CC1NCc1ccccc1 (stereo unspecified) | > 100 µM |
| COC(=O)[C@]1(c2cc3ccccc3n2S(=O)(=O)c2ccccc2)CC2CN(C(=O)OCc3ccccc3)C1C1OC(C)(C)OC21 (stereo partly specified) | > 100 µM |
| O=S(=O)(Nc1nc2ccccc2nc1N1CCCCCC1)c1ccccc1 | > 100 µM |
| Nc1cc2c3c(cccc3c1)C(=O)N(CCN1CCCC1)C2=O | 22.2 µM |
| Nc1[nH]c(=O)nc2c1ncn2C1OC(CO)C(O)C1O (stereo unspecified) | > 100 µM |
| CC(O)c1nc(C#N)c(N)o1 (stereo unspecified) | > 100 µM |
| COc1cc2c(/C=C3\C(=O)Nc4ccccc43)c[nH]c2cc1C | > 100 µM |

These data points were gathered from PubChem BioAssay (NCI).
